Data credit: the supplement of paper PMC10627819

system: S. aureus DSM 20231; assay: Bliss interaction score (quartile over a dose matrix) (fitness difference); higher = more antagonism (negative = synergy)
experimental-endpoint: Bliss interaction score
Give bare numbers.

Prompt: Please state recorded Bliss interaction score (tested on S. aureus DSM 20231) of CO[C@@]12[C@H](COC(N)=O)C3=C(C(=O)C(C)=C(N)C3=O)N1C[C@@H]1N[C@@H]12 [MitomycinC] + COc1c(N2C[C@@H]3CCCN[C@@H]3C2)c(F)cc2c(=O)c(C(=O)O)cn(C3CC3)c12 [Moxifloxacin]
Response: 0.07

Prompt: Please state recorded Bliss interaction score (tested on S. aureus DSM 20231) of CO[C@H]1/C=C/O[C@@]2(C)Oc3c(C)c(O)c4c(O)c(c(/C=N/N5CCN(C)CC5)c(O)c4c3C2=O)NC(=O)/C(C)=C\C=C\[C@H](C)[C@H](O)[C@@H](C)[C@@H](O)[C@@H](C)[C@H](OC(C)=O)[C@@H]1C [Rifampicin] + CC[C@H]1OC(=O)[C@H](C)C(=O)[C@H](C)[C@@H](O[C@@H]2O[C@H](C)C[C@H](N(C)C)[C@H]2O)[C@](C)(OC)C[C@@H](C)C(=O)[C@H](C)[C@H]2N(CCCCn3cnc(-c4cccnc4)c3)C(=O)O[C@]12C [Telithromycin]
Response: 0.0559

Others:
Prompt: Please state recorded Bliss interaction score (tested on S. aureus DSM 20231) of CN[C@H](CC(C)C)C(=O)N[C@H]1C(=O)N[C@@H](CC(N)=O)C(=O)N[C@H]2C(=O)N[C@H]3C(=O)N[C@H](C(=O)N[C@H](C(=O)O)c4cc(O)cc(O)c4-c4cc3ccc4O)[C@H](O[C@H]3C[C@](C)(N)[C@@H](O)[C@H](C)O3)c3ccc(c(Cl)c3)Oc3cc2cc(c3O[C@@H]2O[C@H](CO)[C@@H](O)[C@H](O)[C@H]2O[C@H]2C[C@](C)(NCc3ccc(-c4ccc(Cl)cc4)cc3)[C@@H](O)[C@H](C)O2)Oc2ccc(cc2Cl)[C@H]1O [Oritavancin] + C[n+]1ccc(-c2cc[n+](C)cc2)cc1 [Paraquat];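 also: first quartile when negative (synergy) and third quartile when positive (antagonism)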
Response: -0.0738

* * *

test system: S. aureus DSM 20231; assay: Bliss interaction score (quartile over a dose matrix) (fitness difference); higher = more antagonism (negative = synergy);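 also: first quartile when negative (synergy) and third quartile when positive (antagonism)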
experimental-endpoint: Bliss interaction score
One number for each entry.

Prompt: Please state recorded Bliss interaction score (tested on S. aureus DSM 20231) of CC[C@H]1OC(=O)[C@H](C)[C@@H](O[C@H]2C[C@@](C)(OC)[C@@H](O)[C@H](C)O2)[C@H](C)[C@@H](O[C@@H]2O[C@H](C)C[C@H](N(C)C)[C@H]2O)[C@](C)(O)C[C@@H](C)C(=O)[C@H](C)[C@@H](O)[C@]1(C)O [Erythromycin] + COc1cc(Cc2cnc(N)nc2N)cc(OC)c1OC [Trimethoprim];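 also: first quartile when negative (synergy) and third quartile when positive (antagonism)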
Response: 0.0179

# input for lookup
Prompt: Please state recorded Bliss interaction score (tested on S. aureus DSM 20231) of CO[C@@]12[C@H](COC(N)=O)C3=C(C(=O)C(C)=C(N)C3=O)N1C[C@@H]1N[C@@H]12 [MitomycinC] + CN(C)c1cc(NC(=O)CNC(C)(C)C)c(O)c2c1C[C@H]1C[C@H]3[C@H](N(C)C)C(O)=C(C(N)=O)C(=O)[C@@]3(O)C(O)=C1C2=O [Tigecycline];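 also: first quartile when negative (synergy) and third quartile when positive (antagonism)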
Response: 0.0285
